For each of the compounds below, state its Mean disease severity.
Test system: Venturia inaequalis
Test: Control of apple scab in greenhouse test, apple seedlings
Type: in vivo
Details: 100 p.p.m.; Barrat & Horsfall Scale, 1 = 0%, 12 = 100% leaf scabbed; 15 days after inoculation
# answer = number (no unit)

What value of Mean disease severity has been recorded for this entry: O=S(=O)(CC(Cl)Cl)c1cc(Cl)ccc1Cl
3.0

What value of Mean disease severity has been recorded for this entry: O=S(=O)(CC(Cl)(Cl)Cl)c1cc(Cl)ccc1Cl
2.9

What value of Mean disease severity has been recorded for this entry: O=S(=O)(CC(Cl)Cl)c1cc(Br)ccc1Br
5.3

What value of Mean disease severity has been recorded for this entry: O=S(=O)(CC(Cl)(Cl)Cl)c1cc(Br)ccc1Br
2.0

====

Test system: Venturia inaequalis
Test: Control of apple scab in greenhouse test, apple seedlings
Format: in vivo
Settings: 500 p.p.m.; Barrat & Horsfall Scale, 1 = 0%, 12 = 100% leaf scabbed; 15 days after inoculation
Recorded Endpoint: Mean disease severity
# answer = number (no unit)

What value of Mean disease severity has been recorded for this entry: O=S(=O)(CC(Cl)Cl)c1cc(Cl)ccc1Cl
1.0

What value of Mean disease severity has been recorded for this entry: O=S(=O)(CC(Cl)(Cl)Cl)c1cc(Cl)ccc1Cl
1.3

What value of Mean disease severity has been recorded for this entry: O=S(=O)(CC(Cl)(Cl)Cl)c1cc(Br)ccc1Br
1.3

What value of Mean disease severity has been recorded for this entry: O=S(=O)(CC(Cl)Cl)c1cc(Br)ccc1Br
5.0

====

System: Rhizoctonia solani
Experiment: Fungitoxicity in culture media (agar), growth inhibition
Type: cell-based
Conditions: 50% inhibition of growth, read-out: ED50 (the source's name)
For each of the molecules below, state its IC50.

What value of IC50 has been recorded for this entry: O=S(=O)(CC(Cl)Cl)c1cc(Cl)ccc1Cl
5 µg/mL

What value of IC50 has been recorded for this entry: O=S(=O)(CC(Cl)Cl)c1cc(Br)ccc1Br
5 µg/mL

What value of IC50 has been recorded for this entry: O=S(=O)(C=C(Cl)Cl)c1cc(Cl)ccc1Cl
5 µg/mL

What value of IC50 has been recorded for this entry: COC(=O)C(Cl)CS(=O)(=O)c1cc(Cl)ccc1Cl (centres unmarked)
20 µg/mL

What value of IC50 has been recorded for this entry: O=S(=O)(CC(Cl)(Cl)Cl)c1cc(Cl)ccc1Cl
10 µg/mL

Data credit: patent US4206235A
